Target: Prostacyclin receptor (Homo sapiens)
Sequence (P43119 whole entry): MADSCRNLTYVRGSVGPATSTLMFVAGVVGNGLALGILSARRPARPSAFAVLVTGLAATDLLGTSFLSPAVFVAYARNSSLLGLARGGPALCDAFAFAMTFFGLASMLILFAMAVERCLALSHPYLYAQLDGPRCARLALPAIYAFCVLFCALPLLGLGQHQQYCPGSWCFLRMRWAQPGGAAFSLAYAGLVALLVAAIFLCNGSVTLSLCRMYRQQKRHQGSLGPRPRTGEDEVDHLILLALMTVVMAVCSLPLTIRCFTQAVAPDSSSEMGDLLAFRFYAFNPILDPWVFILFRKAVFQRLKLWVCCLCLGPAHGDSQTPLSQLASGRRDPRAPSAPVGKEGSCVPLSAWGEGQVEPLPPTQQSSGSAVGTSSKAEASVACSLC
Test: Intrinsic activity at human recombinant IP receptor expressed in CHO-K1 cells incubated for 1 hr by HTRF cAMP assay relative to 1 uM iloprost
Type: functional, cell-based
readout: Intrinsic activity (%)

molecule: COc1ccc(-c2c(-c3ccccc3)cnn(CC3CCc4c(cccc4OCC(=O)O)C3)c2=O)cc1F (racemic)
reported result: 84
--
molecule: O=C(O)COc1cccc2c1CCC(Cn1ncc(-c3cccc(F)c3)c(-c3ccccc3)c1=O)C2 (racemic)
reported result: 82
--
molecule: Cc1cccc(-c2cc(=O)n(CC3CCc4c(cccc4OCC(=O)O)C3)nc2-c2ccccc2)c1 (racemic)
reported result: 97
--
molecule: COc1cccc(-c2cc(=O)n(CC3CCc4c(cccc4OCC(=O)O)C3)nc2-c2ccccc2)c1 (racemic)
reported result: 88
--
molecule: COc1ccc(-c2nn(CC3CCc4c(cccc4OCC(=O)O)C3)c(=O)cc2-c2ccccc2)cc1 (racemic)
reported result: 80
--
molecule: O=C(O)COc1cccc2c1CCC(Cn1nc(-c3ccccc3)c(-c3cccc(F)c3)cc1=O)C2 (racemic)
reported result: 63
--
molecule: COc1ccc(-c2c(-c3ccccc3)cnn(CC3CCc4c(cccc4OCC(=O)O)C3)c2=O)cc1 (racemic)
reported result: 72
--
molecule: COc1cccc(-c2cc(=O)n(CC3CCc4c(cccc4OCC(=O)O)C3)nc2-c2ccc(F)cc2)c1 (racemic)
reported result: 91
--
molecule: Cc1ccc(-c2nn(CC3CCc4c(cccc4OCC(=O)O)C3)c(=O)cc2-c2ccccc2)cc1 (racemic)
reported result: 67
--
molecule: COc1ccc(-c2nn(CC3CCc4c(cccc4OCC(=O)O)C3)c(=O)cc2-c2ccccc2)c(F)c1 (racemic)
reported result: 78
--
molecule: COc1cccc(-c2cc(=O)n(CC3CCc4c(cccc4OCC(=O)O)C3)nc2-c2ccccc2)c1F (racemic)
reported result: 97
--
molecule: O=C(O)COc1cccc2c1CCC(Cn1ncc(-c3cccc(F)c3F)c(-c3ccccc3)c1=O)C2 (racemic)
reported result: 87
--
molecule: O=C(O)COc1cccc2c1CCC(Cn1ncc(-c3cccc(Cl)c3)c(-c3ccccc3)c1=O)C2 (racemic)
reported result: 93
--
molecule: O=C(O)COc1cccc2c1CCC(Cn1ncc(-c3ccccc3)c(-c3ccccc3F)c1=O)C2 (racemic)
reported result: 91
--
molecule: O=C(O)COc1cccc2c1CCC(Cn1nc(-c3ccccc3)c(-c3cccc(Cl)c3)cc1=O)C2 (racemic)
reported result: 77

====

Assay: Half life in sc dosed rat
Assay type: ADME, organism-based
Conditions: in vivo
readout: half-life

compound: O=C(O)COc1cccc2c1CCC(Cn1ncc(-c3cccc(F)c3F)c(-c3ccccc3)c1=O)C2 (racemic)
reported result: 150 min

====

Target: Prostacyclin receptor (Rattus norvegicus, UniProt P43253)
Sequence (P43253 whole entry): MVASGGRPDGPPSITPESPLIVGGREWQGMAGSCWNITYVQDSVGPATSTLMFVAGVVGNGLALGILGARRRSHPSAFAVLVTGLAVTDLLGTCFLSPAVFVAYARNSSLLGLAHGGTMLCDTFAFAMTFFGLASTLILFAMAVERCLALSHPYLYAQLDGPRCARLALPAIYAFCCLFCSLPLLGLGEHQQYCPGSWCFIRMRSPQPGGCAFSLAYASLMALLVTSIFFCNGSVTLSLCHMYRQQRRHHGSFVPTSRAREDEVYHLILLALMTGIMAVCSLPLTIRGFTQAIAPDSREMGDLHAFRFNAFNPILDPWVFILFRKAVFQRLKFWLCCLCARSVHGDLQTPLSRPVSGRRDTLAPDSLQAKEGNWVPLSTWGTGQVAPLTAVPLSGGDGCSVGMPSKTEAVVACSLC
Test: Agonist activity at rat recombinant IP receptor expressed in CHO-K1 cells incubated for 1 hr by HTRF cAMP assay
Assay type: functional, cell-based
Consider the cut-off 600 nM. If the recorded EC50 is strictly smaller, the label is 1.0; if not, the label is 0.0.

compound: O=C(O)COc1cccc2c1CCC(Cn1nc(-c3ccc(F)cc3)c(-c3ccccc3)cc1=O)C2 (racemic)
category label: 0.0
//
compound: O=C(O)COc1cccc2c1CCC(Cn1ncc(-c3cccc(Cl)c3)c(-c3ccccc3)c1=O)C2 (racemic)
category label: 1.0
//
compound: O=C(O)COc1cccc2c1CCC(Cn1ncc(-c3ccccc3)c(-c3ccccc3F)c1=O)C2 (racemic)
category label: 1.0
//
compound: O=C(O)COc1cccc2c1CCC(Cn1ncc(-c3cccc(F)c3)c(-c3ccccc3)c1=O)C2 (racemic)
category label: 1.0
//
compound: O=C(O)COc1cccc2c1CCC(Cn1nc(-c3cccc(F)c3)c(-c3ccccc3)cc1=O)C2 (racemic)
category label: 0.0
//
compound: COc1cccc(-c2cc(=O)n(CC3CCc4c(cccc4OCC(=O)O)C3)nc2-c2ccc(C)cc2)c1 (racemic)
category label: 1.0
//
compound: O=C(O)COc1cccc2c1CCC(Cn1ncc(-c3ccccc3)c(-c3ccccc3)c1=O)C2 (racemic)
category label: 1.0
//
compound: COc1ccc(-c2cnn(CC3CCc4c(cccc4OCC(=O)O)C3)c(=O)c2-c2ccccc2)cc1 (racemic)
category label: 0.0
//
compound: COc1cccc(-c2nn(CC3CCc4c(cccc4OCC(=O)O)C3)c(=O)cc2-c2ccccc2)c1 (racemic)
category label: 0.0
//
compound: O=C(O)COc1cccc2c1CCC(Cn1ncc(-c3ccccc3)c(-c3cccc(F)c3)c1=O)C2 (racemic)
category label: 0.0
//
compound: O=C(O)COc1cccc2c1CCC(Cn1ncc(-c3ccccc3)c(-c3ccc(F)cc3)c1=O)C2 (racemic)
category label: 1.0
//
compound: COc1cccc(-c2cc(=O)n(CC3CCc4c(cccc4OCC(=O)O)C3)nc2-c2ccc(F)cc2)c1 (racemic)
category label: 0.0
//
compound: COc1ccc(-c2nn(CC3CCc4c(cccc4OCC(=O)O)C3)c(=O)cc2-c2ccccc2)c(F)c1 (racemic)
category label: 1.0
//
compound: O=C(O)COc1cccc2c1CCC(Cn1nc(-c3ccccc3)c(-c3ccccc3)cc1=O)C2 (racemic)
category label: 0.0
//
compound: COc1ccc(-c2c(-c3ccccc3)cnn(CC3CCc4c(cccc4OCC(=O)O)C3)c2=O)cc1F (racemic)
category label: 1.0

====

Target: Prostacyclin receptor (Rattus norvegicus)
Experiment: Agonist activity at rat recombinant IP receptor expressed in CHO-K1 cells incubated for 1 hr by HTRF cAMP assay
pEC50: −log10 of the molar value.

compound: COc1ccc(-c2cc(=O)n(CC3CCc4c(cccc4OCC(=O)O)C3)nc2-c2ccccc2)cc1 (racemic)
value qualifier: <
pEC50: 5.00
//
compound: COc1cccc(-c2cc(=O)n(CC3CCc4c(cccc4OCC(=O)O)C3)nc2-c2ccccc2)c1 (racemic)
value qualifier: =
pEC50: 6.51
//
compound: COc1ccc(-c2c(-c3ccccc3)cnn(CC3CCc4c(cccc4OCC(=O)O)C3)c2=O)cc1 (racemic)
value qualifier: =
pEC50: 7.96
//
compound: O=C(O)COc1cccc2c1CCC(Cn1nc(-c3ccccc3)c(-c3cccc(F)c3)cc1=O)C2 (racemic)
value qualifier: =
pEC50: 6.05
//
compound: COc1cccc(-c2cnn(CC3CCc4c(cccc4OCC(=O)O)C3)c(=O)c2-c2ccccc2)c1 (racemic)
value qualifier: =
pEC50: 6.16
//
compound: COc1ccc(-c2nn(CC3CCc4c(cccc4OCC(=O)O)C3)c(=O)cc2-c2ccccc2)cc1F (racemic)
value qualifier: =
pEC50: 7.29
//
compound: COc1cccc(-c2cc(=O)n(CC3CCc4c(cccc4OCC(=O)O)C3)nc2-c2ccccc2)c1F (racemic)
value qualifier: =
pEC50: 6.46
//
compound: COc1ccc(-c2nn(CC3CCc4c(cccc4OCC(=O)O)C3)c(=O)cc2-c2ccccc2)cc1 (racemic)
value qualifier: =
pEC50: 7.90

====

Experiment: Half life in iv dosed rat
Type: ADME, organism-based
Conditions: in vivo
readout: half-life (h)

compound: O=C(O)COc1cccc2c1CC[C@@H](Cn1ncc(-c3cccc(F)c3F)c(-c3ccc(F)cc3)c1=O)C2 (racemic)
readout: half-life
unit symbol: h
reported result: 2

====

Target: Prostacyclin receptor (Homo sapiens)
Assay: Agonist activity at human recombinant IP receptor expressed in CHO-K1 cells incubated for 1 hr by HTRF cAMP assay
The threshold is 0.04 µM. Values of EC50 beneath it are tagged Satisfied; values meeting or exceeding it are tagged Not satisfied.

molecule: COc1ccc(-c2nn(CC3CCc4c(cccc4OCC(=O)O)C3)c(=O)cc2-c2ccccc2)c(F)c1 (racemic)
category label: Satisfied
--
molecule: COc1cccc(-c2cc(=O)n(CC3CCc4c(cccc4OCC(=O)O)C3)nc2-c2ccc(F)cc2)c1 (racemic)
category label: Not satisfied
--
molecule: COc1ccc(-c2c(-c3ccccc3)cnn(CC3CCc4c(cccc4OCC(=O)O)C3)c2=O)cc1F (racemic)
category label: Not satisfied
--
molecule: O=C(O)COc1cccc2c1CCC(Cn1ncc(-c3ccccc3)c(-c3ccccc3F)c1=O)C2 (racemic)
category label: Not satisfied
--
molecule: COc1cccc(-c2cc(=O)n(CC3CCc4c(cccc4OCC(=O)O)C3)nc2-c2ccccc2)c1F (racemic)
category label: Satisfied
--
molecule: COc1ccc(-c2c(-c3ccccc3)cnn(CC3CCc4c(cccc4OCC(=O)O)C3)c2=O)cc1 (racemic)
category label: Satisfied
--
molecule: COc1ccc(-c2nn(CC3CCc4c(cccc4OCC(=O)O)C3)c(=O)cc2-c2ccccc2)cc1 (racemic)
category label: Satisfied
--
molecule: O=C(O)COc1cccc2c1CCC(Cn1ncc(-c3cccc(F)c3)c(-c3ccccc3)c1=O)C2 (racemic)
category label: Not satisfied

====

Target: UniProt P43119
Assay: Agonist activity at human recombinant IP receptor expressed in CHO-K1 cells incubated for 1 hr by HTRF cAMP assay

compound: COc1ccc(-c2nn(CC3CCc4c(cccc4OCC(=O)O)C3)c(=O)cc2-c2ccccc2)cc1F (racemic)
EC50: 10 nM
//
compound: O=C(O)COc1cccc2c1CCC(Cn1nc(-c3cccc(F)c3)c(-c3ccccc3)cc1=O)C2 (racemic)
EC50: 1060 nM
//
compound: O=C(O)COc1cccc2c1CCC(Cn1nc(-c3ccccc3)c(-c3cccc(F)c3)cc1=O)C2 (racemic)
EC50: 380 nM
//
compound: COc1ccc(-c2cc(=O)n(CC3CCc4c(cccc4OCC(=O)O)C3)nc2-c2ccccc2)cc1 (racemic)
EC50: 2670 nM
//
compound: O=C(O)COc1cccc2c1CCC(Cn1ncc(-c3cccc(Cl)c3)c(-c3ccccc3)c1=O)C2 (racemic)
EC50: 86 nM
//
compound: O=C(O)COc1cccc2c1CCC(Cn1ncc(-c3ccccc3)c(-c3ccc(F)cc3)c1=O)C2 (racemic)
EC50: 20 nM
//
compound: O=C(O)COc1cccc2c1CCC(Cn1ncc(-c3cccc(F)c3F)c(-c3ccc(F)cc3)c1=O)C2 (racemic)
EC50: 33 nM
//
compound: O=C(O)COc1cccc2c1CCC(Cn1nc(-c3ccccc3)c(-c3ccccc3)cc1=O)C2 (racemic)
EC50: 969 nM
